Target: T1, Human CD19-his protein (human, UniProt P15391 20-291)
T1 construct: bought protein; also called human CD19 protein; recombinant human CD19-His; not shown: His tag
T1 sequence (looked up): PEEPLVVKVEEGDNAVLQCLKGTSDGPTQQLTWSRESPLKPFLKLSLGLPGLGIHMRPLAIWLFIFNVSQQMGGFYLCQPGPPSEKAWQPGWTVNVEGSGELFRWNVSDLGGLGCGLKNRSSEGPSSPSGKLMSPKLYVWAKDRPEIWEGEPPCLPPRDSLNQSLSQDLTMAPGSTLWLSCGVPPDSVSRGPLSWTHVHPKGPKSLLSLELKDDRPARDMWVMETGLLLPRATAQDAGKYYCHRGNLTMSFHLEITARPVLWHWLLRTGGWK
Test: ELISA, antibody at 100 nM
Could you please report measured OD450 for the items listed next?
Kindly provide the number alone.

# get_value(readout='OD450', item= F4.272.13 (antibody, human IgG1, V domains shown, human-murine chimeric antibody, human IgG1) VH: QVQLKESGPGLVAPSQSLSITCTVSGFSLTDYGVSWIRQPPGKGLEWLGVIWGSETTFYNSALKSRLSISKDNSKSQLFLQMNSLQADDTAIYYCAKHHYYGGSFSMDYWGQGTSVTVSS VL: DIQMTQTTSSLSASLGDRVTISCRASQDINNYLNWYQQKPDGTVKFLIYYTSRLHSGVPSRFSGSGSGTDYSLTISDLEQEDIATYFCQQGNTLPYTFGGGTKLEIK )
2.25

Also need F4.180.1 (antibody, human IgG1, V domains shown, human-murine chimeric antibody, human IgG1) VH: EVQLQQSAPELVKPGASVKMSCKTSGYTFTENIIHWVKQTHGKSLEWIGGINPDNGGTSYHQKFKGRTTLTIDKSSSTAYMELRSLTSDDSAVFFCARQAPLYWYFDIWGAGTTVTVSS VL: DIVLTQSPASLAVSLGQRATISCRASESVDSYGNSLMHWFQQKPGQPPRLLIYRASNLESGIPARFSGSGSRTDFTLTITPVEADDVATYYCQQSNEDPWTFGGGTKLEIK , thanks.
2.02

Also need F4.82.11 (antibody, human IgG1, V domains shown, human-murine chimeric antibody, human IgG1) VH: QVTLKESGPGILQASQTLSLTCSFSGFSLSTFGIGVGWVRQPSGKGLEWLAHIWWNDNKFFNTTLKNRLTLSKDPSNNQVFLKIASVDTADTATYYCARSRSALITTGLYAMDYWGQGTSVTVSS VL: DIQMTQTPSSLSASLGDRVTISCRSSQDISNYVNWYQQKPDGTVKVLINYTSRLHSGVPSRFSGSGSGTDYSLTISNLEQEDIASYFCQQGFTLPYTFGGGTKLEIK , thanks.
1.52

Also need F4.4.6 (antibody, human IgG1, V domains shown, human-murine chimeric antibody, human IgG1) VH: QVQLQQSGAELARPGASVKLSCKASGYTFTSYWMQWVKQRPGQGLEWIGAIYPGDGDSRYTQKFKGKATLTADKSSSTAYMQLSSLASEDSAVYYCARSTTTVLGNNFEYWGQGTTLTVSS VL: QIVLTQSPAIMSALPGEKVTMTCSASSSVSSMHWYQQKSGTSPKRWIYDTSKLASGVPARFSGSGSGTSYSLTISSMEAEDAATYYCQQWSSNPWTFGGGTKLEIK , thanks.
0.79

Source: patent US20250042994A1
